Reference source: PubChem BioAssay (NCI)

Tested on: UO-31 renal
Assay: NCI-60 one-dose screen, 48 h (100 = growth as untreated, 0 = no growth, -100 = all killed)
Details: 10 µM unless noted
The panel holds about 83,000 compounds, 20% with a hit somewhere; the sample as a whole holds those more often. The source made the active and inactive calls. How the source made its calls: active means growth percent below 10; inactive means the rest.
Metric name: growth

// below: answered compounds
Cc1[nH]ccc2cc3nc4ccccc4c3cc12
8.89% (active)
COC(=O)c1cc2oc(/C=N\NC(=O)c3cc4oc(C)c(C)c4[nH]3)cc2[nH]1
94.7% (inactive)
FC(F)(F)c1ccc(-c2cnc(-c3nn[nH]n3)nc2NC2CCCCCC2)cc1
38.2% [50 µM] (inactive)
COc1ccc2nc(NC(=O)CN3CCn4c(nnc4C(F)(F)F)C3)sc2c1
80.6% (inactive)
NS(=O)(=O)N(c1cc(C(F)(F)F)cc(C(F)(F)F)c1)C1CCN(Cc2ccc(C(F)(F)F)cc2)CC1
64.6% (inactive)

Please report growth for every entry that follows.
1. COC(=O)c1cc2c(/C=C3/NC(=S)NC3=O)coc2n1C
2. CC(C)C[C@H](NC(=O)/C=C/Cn1ccc2ccccc2c1=O)B(O)O
3. COc1cccc(/C=N/Nc2nc3ccccc3s2)c1OC

Return:
50% (inactive)
48.9% (inactive)
85.1% (inactive)

----------
Test system: UO-31 renal
Assay: NCI-60 one-dose screen, 48 h
Settings: 10 µM unless noted
The panel holds about 83,000 compounds, 20% with a hit somewhere; the sample as a whole holds those more often. Active and inactive are the calls of the source. Rule for the calls: active = growth percent below 10; inactive = the rest.
Hello, when you answer, please use one of the following outcomes: yes for active, no for inactive

Field: example entries. Status: answers known.
O=C(NCCCl)NCCN1c2nc3ccccc3cc2Sc2cc3ccccc3nc21
yes
COc1ccc2nc(-c3ccc(Cl)cc3)cc(-c3nnc(SCC(=O)Nc4ccc(C(C)=O)cc4)n3-c3ccccc3)c2c1
no

Enquiry: Just curious, what result did CS(=O)(=O)N1CCN(Cc2cc3nc(-c4cccc5[nH]ncc45)nc(N4CCOCC4)c3s2)CC1 (tested in a mixture with another compound) get here?
Return: yes

Enquiry: Ok, now CCOC(=O)c1sc(NC(=O)COc2cccc(/C=C3\CCc4cc(OC)ccc4C3=O)c2)nc1C
Return: no

Enquiry: Ok, now CCCCCCCCN(CCO)CCCCCCCC
Return: no

----------
Provide the reported growth of each item.
Test system: NCI-H23 lung
Assay: NCI-60 one-dose screen, 48 h (100 = growth as untreated, 0 = no growth, -100 = all killed)
Conditions: 10 µM unless noted
The panel holds about 83,000 compounds, 20% with a hit somewhere; the sample as a whole holds those more often. Active and inactive are the calls of the source. The calls were made as follows: active = growth percent below 10; inactive = the rest.

O=CNc1ccc2c(c1)Cc1cc([N+](=O)[O-])ccc1-2
37.9% (inactive)
N/C(=N\c1nc2ccccc2s1)NC(=O)Nc1ccccc1Cl
34.9% (inactive)
CC(=O)c1ccc(NS(=O)(=O)c2ccc([N+](=O)[O-])cc2)cc1
105% (inactive)
CCCCCCCCCCNCCSS(=O)(=O)O
86.2% (inactive)
COc1ccc(C(=O)COc2cccc(/C=C3\COc4ccc5ccccc5c4C3=O)c2)cc1
59.5% (inactive)

Enquiry: Entry O=C(Nc1ccc2c(c1)C(=O)c1ccccc1-2)c1ccccc1 has what growth?
Return: 95% (inactive)

----------
System: NCI/ADR-RES ovarian
Assay: NCI-60 one-dose screen, 48 h (100 = growth as untreated, 0 = no growth, -100 = all killed)
Conditions: 10 µM unless noted
About 83,000 compounds went through this panel and 20% of them were active in at least one assay; those are over-represented in the sample as a whole.
Provide the reported growth of each item.
One number for each entry, in %.

// below: answered compounds
O=C(COc1ccc(/C=C2\Cc3ccccc3C2=O)cc1)c1ccc(Cl)cc1
92.6
COc1ccc(-c2nnc3c4[nH]cnc4ncn23)c(OC)c1
17.6
COc1ccc2c(c1)[n+](=O)c(C(=O)/C=C/c1cc(OC)c(OC)c(OC)c1)c(C)n2[O-]
73
COc1ccc([N+](=O)[O-])c(S(=O)(=O)c2ccc(Cl)cc2)n1
81.3
CCCCCCCCCCCCCCCCCC1=NC(C)(CO)CO1 (stereo unspecified)
85.8

Okay, next one:
Enquiry: Entry O=c1c2ccccc2c2nccn2c2cc(Cl)ccc12 has what growth?
Return: 57.5

----------
System: OVCAR-5 ovarian
Test: NCI-60 one-dose screen, 48 h (100 = growth as untreated, 0 = no growth, -100 = all killed)
Conditions: 10 µM unless noted
The panel holds about 83,000 compounds, 20% with a hit somewhere; the sample as a whole holds those more often.
Metric name: growth (%)
One number for each entry, in %.

Please report growth for every entry that follows.
1. CC1Cc2ccccc2N1C(=O)c1ccc(C(=O)c2ccccc2)cc1 (stereo not given)
2. COc1cc(/C=C/C(=O)c2c(C)n([O-])c3ccccc3[n+]2=O)cc(OC)c1OC
3. COc1cc(Cl)cc(-c2nn(-c3cccc(NC(=O)c4cc(C(F)(F)F)cc(C(F)(F)F)c4)c3)cc2-c2ccncc2)c1

Return:
1. 143
2. 80.6
3. 83

Please report growth for every entry that follows.
1. O=C(CSc1ncc(-c2ccccc2)n1-c1ccccc1)Nc1ccc(-c2nc3ccccc3s2)cc1
2. CN(C)c1ccc(-n2nc3ccccc3n2)cc1

Return:
82.5
80.3

----------
System: CAKI-1 renal
Test: NCI-60 one-dose screen, 48 h (100 = growth as untreated, 0 = no growth, -100 = all killed)
Conditions: 10 µM unless noted
The panel holds about 83,000 compounds, 20% with a hit somewhere; the sample as a whole holds those more often.
Label satisfied when growth is at or above 90%; anything below gets not satisfied.

Field: example entries. Status: answers known.
COc1cc(/C=N/NC(=O)c2ccc(C(F)(F)F)nc2Nc2cc(Cl)ccc2C)cc(OC)c1OC
not satisfied
Cc1ccc(N/N=C(/C(=O)c2ccc(Cl)cc2)c2nc(C)cc(=O)[nH]2)cc1
satisfied
COc1cc(/C=C2\SC(N3CCCCC3)=NC2=O)ccc1OCCCCCCOc1ccc(/C=C2\SC(N3CCCCC3)=NC2=O)cc1OC
not satisfied
O=c1sc2ncnc3ncn1c32
not satisfied

Enquiry: Please indicate if the recorded growth for CCCCCCCCCCCCCCCCCC1=NC(C)(CO)CO1 (configuration not stated) meets or exceeds 90%.
Return: not satisfied

Enquiry: Ok, now COc1cc(/C=C\C(C)=N\Nc2ccccc2)ccc1O
Return: not satisfied

----------
Tested on: BT-549 breast
Experiment: NCI-60 one-dose screen, 48 h
Conditions: 10 µM unless noted
Compounds without any hit were thinned out: in the full panel of roughly 83,000, 20% have a hit. The source made the active and inactive calls. How the source made its calls: active means growth percent below 10; inactive means the rest.
Hello, when you answer, please use one of the following outcomes: active, inactive

Field: example entries. Status: answers known.
COC(=O)[C@H](Cc1cn(C)cn1)NC(=O)[C@H](C)NC(=O)Nc1cc(C(F)(F)F)cc(C(F)(F)F)c1
active
CC(=O)N1N=C(c2ccc(C(F)(F)F)cc2)CC1c1ccc2c(c1)OCO2 (stereo unspecified)
inactive
N#Cc1ccc(-c2csc(Nc3ccc4nc5n(c(=O)c4c3)CCC5)n2)cc1
inactive
COc1cccc(N2CCN(c3cccc(C)n3)CC2)c1
inactive

Enquiry: Just curious, what result did O=C(Nc1ccccc1OC(=O)c1ccccc1)c1ccccc1 get here?
Return: inactive

Enquiry: Ok, now CCOC(=O)C1C(=O)NC(C(=O)OCC)(C(=O)OCC)C1CC (stereo unspecified)
Return: inactive

Enquiry: Ok, now COc1ccc(C2CC(c3ccc4c(c3)OCO4)=NN2C=O)cc1 (stereo unspecified)
Return: inactive

Enquiry: Ok, now CC(=O)OC1Oc2cc(C)c(C)cc2-c2oc(=O)c(-c3ccccc3)cc21 (stereo unspecified)
Return: inactive

Enquiry: Ok, now CCOC(=O)c1sc(NC(=O)COc2ccc(/C=C3\CCc4cc(OC)ccc4C3=O)cc2)nc1C
Return: inactive

Enquiry: Ok, now COc1ccc(-c2cnc(SCC(=O)Nc3ccc(-c4nc5ccccc5s4)cc3)n2-c2ccc(OC)cc2)cc1
Return: inactive

Enquiry: Ok, now O=[N+]([O-])c1ccc2[nH]cc(-c3c4ccccc4cc4[nH]c5ccc([N+](=O)[O-])cc5c34)c2c1
Return: inactive

Enquiry: Ok, now O=C(N/N=C/c1cccc(O)c1)c1ccc(C(F)(F)F)nc1Nc1cccc(C(F)(F)F)c1
Return: active

Enquiry: Ok, now CCC(=O)Nc1cc2c(cc1Cl)-c1ccccc1C2
Return: inactive

Enquiry: Ok, now CCN(CC)CCCCCCCNc1c2ccc(Cl)cc2nc2ccc(OC)cc12
Return: active

Enquiry: Ok, now O=C(/C=C/c1cccc(Nc2ccnc3cc(Cl)ccc23)c1)c1ccc(Cl)cc1
Return: inactive

Enquiry: Ok, now CCOc1cc(/C=C/C(=O)CC(=O)/C=C/c2ccc(OC(=O)CNc3nc4ccc(OC)cc4s3)c(OCC)c2)ccc1OC(=O)CNc1nc2ccc(OC)cc2s1
Return: active

Enquiry: Ok, now COc1ccc(NS(=O)(=O)N2CCCCC2)cc1
Return: inactive

Enquiry: Ok, now Oc1c(N=Nc2nn[nH]n2)ccc2ccccc12
Return: inactive

Enquiry: Ok, now Cc1nn(-c2ccccc2)c2nc(N)c(C3=NCCO3)nc12
Return: inactive
